Tested on: PPARa:RXRa (NR concentration 270 nM, RXRa partner concentration 90 nM)
Test: PBM binding z-score (relative to random genomic background probes); higher = stronger binding; sequences stand for … in GC…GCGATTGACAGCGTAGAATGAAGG
Below is a list of entries, each paired with its recorded PBM binding z-score value.
METRIC: PBM binding z-score

{"RESIDUES": "ATCGAAAAGTCGTGAGGTGAGTATACAGAAAGGC", "REPORTED": 0.351}
{"RESIDUES": "CCTGCTAGGTCATGGTCTGCTAATCTACAGTATG", "REPORTED": 3.4}
{"RESIDUES": "TAGCCTAGGTCATTCAGGGGCGAGTATAGAAAGC", "REPORTED": 3.69}
{"RESIDUES": "TCTAGTTGGTGAAAGGTCACACACTCGAAATGCG", "REPORTED": 6.32}
{"RESIDUES": "TCTTGTAGATCAACAGGAGGTTAAGAATGATCGA", "REPORTED": 1.41}
{"RESIDUES": "ACTATTAGTTGACTTATGGCAACCGATACGACGC", "REPORTED": 0.117}
{"RESIDUES": "ATCTCTAGGTAAGACTCAGTTCAGTGCAGAACGC", "REPORTED": 0.349}
{"RESIDUES": "GCTATTAGTTGAAAGGGCACCCGAATGATTCTCG", "REPORTED": 2.14}
{"RESIDUES": "TCTAGCAGGCCAGAGGGTGACTCAAGAGGTACGG", "REPORTED": 0.54}
{"RESIDUES": "GGAACGATGGCAAGTTGATAGCAGAGTTTGATGG", "REPORTED": -0.654}
{"RESIDUES": "CGTCCAAGGTCAAAGGCCAGTGAAGAGATGACGG", "REPORTED": 6.01}
{"RESIDUES": "CCTAACGGGTCACTCCAGGTTATAGCATCGGAGT", "REPORTED": 3.5}

====

Test system: VDR:RXRa (NR concentration 270 nM, RXRa partner concentration 90 nM)
Experiment: PBM binding z-score (relative to random genomic background probes); higher = stronger binding; sequences stand for … in GC…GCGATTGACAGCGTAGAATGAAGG

{"RESIDUES": "CCTACTGGGCCAAAAAGGTCATTAATGCCGATAA", "PBM binding z-score": 4.53}
{"RESIDUES": "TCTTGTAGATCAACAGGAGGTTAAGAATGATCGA", "PBM binding z-score": 0.56}
{"RESIDUES": "GCGACTGGGGCATCATCAGGTTACCATAACTTAA", "PBM binding z-score": 0.00777}
{"RESIDUES": "CGAACGAGGGCATAAGTTGATAGCAAATGCCGAT", "PBM binding z-score": 0.652}
{"RESIDUES": "ACTATTAGTTGACTTAGGGCACCCGATACGACGC", "PBM binding z-score": 0.0637}
{"RESIDUES": "ATCTCTAGGTAACCAAGTGCAGTGAATGCCGAAC", "PBM binding z-score": 1.3}
{"RESIDUES": "GTACCAAGGTGATTAGGTCGTTGATGAGTAGGCG", "PBM binding z-score": 0.223}
{"RESIDUES": "ATCGAAAGGTCGACTAGGTGAGTATACACCGTTT", "PBM binding z-score": 3.25}
{"RESIDUES": "GCTTGTAGATCAAGGTTAACAAAGACTAAGCTAA", "PBM binding z-score": 0.333}
{"RESIDUES": "GATACAGGGTCAGCTAGAGGCCAGACTATGGAAA", "PBM binding z-score": 3.23}
{"RESIDUES": "ATCTCTAGGTATAGATAGTTCAGTGAATGCAAAT", "PBM binding z-score": 0.666}
{"RESIDUES": "CCTTACGGGTCACTGACCGGTTATAGCATTTGGA", "PBM binding z-score": 3.34}
